# Tested on: Wolbachia pipientis
# experiment description: Anti-Wolbachia Cell-Based Screen
# Assay type: functional
# Set-up: scale not given: in the data most compounds retested in dose-response had high values
# details: 5 µM
Among all 48,000 compounds or so, about 13,000 (27%) showed an effect of 50% or more. The list shows a part of the results.
Item-by-item account of Percent Effect
Answer format: numeric, % implied, no suffix.

get_value(item= O=C(CS(=O)(=O)Cc1cc(Cl)c2c(c1)OCO2)N1CCCC1 , readout=Percent Effect) returns 112.9

Lab book: Percent Effect of Cn1ccc(C(=O)NC2CCC23CCN(Cc2ccc(F)cc2)CC3)c1.O=C(O)C(F)(F)F (configuration not stated) noted as 104.6

Percent Effect in this record for COc1ccc(CN2C[C@@H](CN(C)C)[C@@H](CO)C2)c(Cl)c1OC : -2.231

Notebook: COC(=O)CC1CCCCN1CC(=O)Nc1cc(F)ccc1F (configuration not stated) , Percent Effect read as 97.72

CC(C)(C)Cc1noc2ncc(C(=O)N3CCCSCC3)cc12 has a reported Percent Effect of -8.808

Quick note, Percent Effect for CN(C)C(=O)CCN1CC(c2ccccc2)(c2ccccc2)CCC1=O landed at -7.363

Consider CN(C)C(=O)CS(=O)(=O)Cc1cc(Cl)c2c(c1)OCO2 . Its measured Percent Effect is 2.003

The value of Percent Effect measured for the compound O=C(NCC(O)c1ccc(F)cc1F)c1cccnc1O (configuration not stated) turned out to be -11.89

Looking up CC(=O)NCCC(=O)NCC1(c2c(F)cccc2F)CCCC1 , I see its Percent Effect listed as 8.916

Form: compound = COCc1ncn2c1CN(S(=O)(=O)c1ccc(C)cc1)CC2 ; Percent Effect = -7.243

###

Quick reference: Percent Effect of the listed items.
# System: Wolbachia pipientis
# experiment description: Anti-Wolbachia Cell-Based Screen
# Assay type: functional
# Parameters: scale not given: in the data most compounds retested in dose-response had high values
# details: 5 µM
Hit rate of the full screen: of about 48,000 compounds, about 13,000 (27%) showed an effect of 50% or more. The list shows a part of the results.

Reference set (4 entries):
compound	observed property	observed result
Cc1nccn1-c1cc(CNC(=O)CCNC(=O)C2CCCC2)ccn1	Percent Effect	5.543%
Cc1nnc2ccc(N3CCN(Cc4nccn4C)CC3)nn12	Percent Effect	-5.258%
Cn1ccnc1CN1CCC2(CC1)CCN(c1ccccc1)C2=O.O=C(O)C(F)(F)F	Percent Effect	113.1%
Cn1cc(C(=O)CC2CCCN2C(=O)c2c[nH]c3ccccc23)cn1 (stereo not drawn)	Percent Effect	107.8%

The compound CC(C)CN1CCc2[nH]cnc2C12CCN(C(=O)c1cnn(C)c1)CC2 showed Percent Effect equal to 18.71%

Lab note: measured Percent Effect of Cn1cc(C[C@H]2[C@H](N3CCOCC3)CCN2C2CCOCC2)cn1.O=C(O)C(F)(F)F.O=C(O)C(F)(F)F was -4.511%

So for CCn1ccnc1CN1CCN(c2ccc3nnc(C)n3n2)CC1 , the logged Percent Effect turned out to be -14.29%

Note to self: Percent Effect recorded for Cn1cc(C(=O)CC2CCCN2C(=O)c2ccc3[nH]ncc3c2)cn1 (stereo not drawn) was -6.365%

###

Measured Percent Effect by item
# System: Wolbachia pipientis
# experiment description: Anti-Wolbachia Cell-Based Screen
# Type: functional
# Set-up: scale not given: in the data most compounds retested in dose-response had high values
# details: 5 µM
In all, about 48,000 compounds went through this assay and about 13,000 (27%) showed an effect of 50% or more. Some of the results follow.
Form entry: enter the amount, then its unit.

compound	Percent Effect
COCc1cncc2c1CCN(C(=O)c1ccsc1)C2	-1.861%
COCCC(=O)N1C[C@H]2CC[C@@H]1CN(C1Cc3ccccc3C1)C2	12.41%
O=C(Nc1ccccc1)C1CN(Cc2nccs2)CC12CCOCC2 (stereo not given)	-7.197%
CN(CC1CCCCO1)S(=O)(=O)c1cccc(C(=O)N2CCOCC2)c1 (stereo not given)	99.86%

Next compound, Percent Effect to be filled in.
Noted Percent Effect for CCN1CC(C(=O)N2CC(Oc3ccccc3Cl)C2)CC1=O (stereo not given) , tested on Wolbachia pipientis: -26.5%
